Examples of molecules with documented MIC follow.
- System: APAE001 (ATCC27853)
- test-name: MIC broth microdilution, APAE001
- Assay type: cell-based, P. aeruginosa
- condition-summary: Pseudomonas aeruginosa, ATCC27853, read-out: MIC APAE001, APAE001 is ATCC27853
- Protocol: Bacterial isolates were cultivated from −70° C. frozen stocks by overnight passages at 35° C. in ambient air on Mueller-Hinton agar (Beckton Dickinson, Franklin Lakes, N.J.). […] Minimum Inhibitory Concentrations (MICs) were determined by the broth microdilution method in accordance with the Clinical and Laboratory Standards Institute (CLSI) guidelines. […]

The examples below pair each entry with its known result.
molecule=C[C@@H](O)[C@H](NC(=O)c1ccc(CCc2ccc(CN3CCOCC3)cc2)cc1)C(=O)NO quantity_measured=MIC result="2 to 16 µg/mL"
molecule=C[C@@H](O)[C@H](NC(=O)c1ccc(Sc2ccc(CN3CCOCC3)cc2)cc1)C(=O)NO quantity_measured=MIC result="> 64 µg/mL"
molecule=C[C@@H](NC(=O)CNC1CC1)[C@H](NC(=O)c1ccc(C#Cc2ccc(CO)cc2)cc1)C(=O)NO quantity_measured=MIC result="2 to 16 µg/mL"
molecule=C[C@@H](N)[C@H](NC(=O)c1ccc(C#Cc2ccc(CN)cc2)cc1)C(=O)NO quantity_measured=MIC result="2 to 16 µg/mL"

Asked: Endpoint output: MIC of `C[C@@H](N)[C@H](NC(=O)c1ccc(C#CC#Cc2ccc(CN3CCOCC3)cc2)cc1)C(=O)NO` . Value?
Given back: 2 to 16 µg/mL

From: patent US9617256B2
